Hi there, I'd appreciate the recorded EC50 for every entry that follows.
# System: A549
# assay.procedure: Cytotoxicity against human A549 cells assessed as cell survival after 96 hrs by sulforhodamine B assay
# Type: functional, cell-based
# condition.summary: A549, 96 h
Answers are plain numbers, in µM.

Previously resolved entries follow.
INSERT INTO measurements (line_notation, measured_metric, measured_number) VALUES
  ('CC1(C)CC[C@]2(C(=O)OCc3ccc(Cl)cc3)CC[C@]3(C)C(=CC[C@@H]4[C@@]5(C)CC[C@H](O)[C@@](C)(CO)[C@@H]5CC[C@]43C)[C@@H]2C1', 'EC50', 9.8),
  ('CC1(C)CC[C@]2(C(=O)OCCCN3C(=O)c4ccccc4C3=O)CC[C@]3(C)C(=CC[C@@H]4[C@@]5(C)CC[C@H](O)[C@@](C)(CO)[C@@H]5CC[C@]43C)[C@@H]2C1', 'EC50', 11.4);

Problem: Need EC50 of CC1(C)CC[C@]2(C(=O)OCc3c(F)c(F)c(F)c(F)c3F)CC[C@]3(C)C(=CC[C@@H]4[C@@]5(C)CC[C@H](O)[C@@](C)(CO)[C@@H]5CC[C@]43C)[C@@H]2C1 , thanks.
Solution: 14.8
